Measured values drawn from the supplement of paper PMC9170038 for this set.

# Test system: MS2 coat protein
# PROTOCOL: apparent KD of MS2 coat protein; higher = weaker reporter binding
# CONDITION_PARAMETERS: Eterna round: R107; input ligand: theophylline 2 mM
Rule: apparent KD of MS2 coat protein under 40 nM gives no, otherwise yes.

RESIDUE_SEQUENCE: AAAUGAGGAUCACCCAUGUAACAACGGGAAGGAGCGCCAAACAAGGCAGGUAGGUCGCCCACAUGAGGAUCACCCAUGUGUUGGG [Exclusion Arginine A GF 28]
LABEL_CLASS: yes
//
RESIDUE_SEQUENCE: AAAUGUGUAAAAGCUUUAACACCCUGAGAAGGAGCGCAAUAAAUUGCAGGUAGGUCGCUCAGACAUGAGGAUCACCCAUGUAACC [Atrabeor]
LABEL_CLASS: yes
//
RESIDUE_SEQUENCE: AAGGGAGAGUCAGAUACCAGAGUAAGAUGGCAUGGUAAUUACAUGAGGAUCACCCAUGUAUUCCCUUGGCAGCUGACCCUACGUU [Exclusion Theophylline B GF 19]
LABEL_CLASS: no
//
RESIDUE_SEQUENCE: GGUAUAUAGGCGGCCGCCACUGAUUUUCAUAUAUAUAUAACAUGAGGAUCACCCAUGUAGAUAUACAGGACCGGGCCUAUAUAUU [aaaC]
LABEL_CLASS: no
//
RESIDUE_SEQUENCE: GGAGCUACGUCGGCCGCCACUAGCGGAUAUUACGUGUACAUGAGGAUCACCCAUGUAAUACGGUUUAGGACCGGGACGUAGCUCC [Lizard]
LABEL_CLASS: no
//
RESIDUE_SEQUENCE: UACAUGAGGAUCACCCAUGUAUAACCGGUACGAGGACCGGUACGGCCGCCACUCGAAACAUGAGGAUCACCCAUGUGCUACUAUU [Same State Trypophan A GF 22]
LABEL_CLASS: no
